Overview of recorded CC90 at 72 h for various molecules
Experiment summary: Cytotoxicity against human THP1 cells after 72 hrs by MTT assay
Format: cell-based
Assay setup: THP-1 cells

- Molecule: "O[C@@H]1Cc2ccccc2N[C@H](c2c(Cl)cccc2Cl)C1 (relative stereo)"
  CC90 at 72 h: "> 300 µM"
- Molecule: "Cc1ccc([C@@H]2C[C@H](O)Cc3cc(C)ccc3N2)cc1 (relative stereo)"
  CC90 at 72 h: "> 300 µM"
- Molecule: "c1ccc([C@@H]2C[C@@H]3Cc4ccccc4N2O3)cc1 (relative stereo)"
  CC90 at 72 h: "> 300 µM"
- Molecule: "Fc1cccc(Cl)c1[C@@H]1C[C@@H]2Cc3cc(Cl)ccc3N1O2 (relative stereo)"
  CC90 at 72 h: "> 300 µM"

Now, please, on to the next molecule.
Query: Could you tell me which CC90 at 72 h is on file for Cc1ccc([C@@H]2C[C@@H]3Cc4cc(C)ccc4N2O3)cc1 (relative stereo) ?
Response: 126 µM

###

Test system: Trypanosoma cruzi
Experiment summary: Antitrypanosomal activity against Trypanosoma cruzi 320I01 amastigotes infected in african green monkey Vero cells after 5 days by Giemsa staining
Format: functional, organism-based
Assay setup: 320I01, Vero, 120 h
Reported property: IC90

- Compound: "Clc1ccc2c(c1)C[C@H]1C[C@@H](c3ccccc3)N2O1 (relative stereo)"
  IC90: "> 100 µM"
- Compound: "O[C@@H]1Cc2ccccc2N[C@H](c2c(Cl)cccc2Cl)C1 (relative stereo)"
  IC90: "> 100 µM"
- Compound: "COc1cccc([C@@H]2C[C@@H]3Cc4ccccc4N2O3)c1 (relative stereo)"
  IC90: "> 100 µM"
- Compound: "CC1CS(=O)(=O)CCN1/N=C/c1ccc([N+](=O)[O-])o1 (centres undefined) [NIFURTIMOX]"
  IC90: "9.06 µM"
- Compound: "Cc1ccc([C@@H]2C[C@H](O)Cc3cc(C)ccc3N2)cc1 (relative stereo)"
  IC90: "> 100 µM"

Query: Could you tell me which IC90 is on file for O[C@@H]1Cc2cc(F)ccc2N[C@H](c2ccccc2)C1 (relative stereo) ?
Response: > 100 µM

Query: Check Brc1ccc2c(c1)C[C@H]1C[C@@H](c3ccccc3)N2O1 (relative stereo) too.
Response: 43.6 µM

Query: Check O[C@@H]1Cc2cc(Cl)ccc2N[C@H](c2ccc(Br)cc2)C1 (relative stereo) too.
Response: > 94.9 µM

Query: Check Cc1ccc2c(c1)C[C@@H](O)C[C@@H](c1ccccc1Cl)N2 (relative stereo) too.
Response: 73.6 µM

###

Experiment summary: Cytotoxicity against human THP1 cells after 72 hrs by MTT assay
Format: cell-based
Assay setup: THP-1 cells
Overview of recorded CC50 at 72 h for various compounds

Query: Could you tell me which CC50 at 72 h is on file for Fc1cccc(Cl)c1[C@@H]1C[C@@H]2Cc3cc(Cl)ccc3N1O2 (relative stereo) ?
Response: > 300 µM

Query: Check COc1cccc([C@@H]2C[C@@H]3Cc4ccccc4N2O3)c1 (relative stereo) too.
Response: > 300 µM

Query: Check C[C@@H]1[C@H](O)[C@@H](C)/C=C/C=C/C=C/C=C/C=C/C=C/C=C/[C@H](O[C@@H]2O[C@H](C)[C@@H](O)[C@H](N)[C@@H]2O)C[C@@H]2O[C@](O)(C[C@@H](O)C[C@@H](O)[C@H](O)CC[C@@H](O)C[C@@H](O)CC(=O)O[C@H]1C)C[C@H](O)[C@H]2C(=O)O [AMPHOTERICIN B] too.
Response: 8.79 µM

###

Overview of recorded Selectivity Index for various molecules
Experiment summary: Selectivity index, CC50 for african green monkey Vero cells to IC50 for Trypanosoma cruzi 320I01 epimastigote
Type: functional

- Molecule: "Clc1cccc(Cl)c1[C@@H]1C[C@@H]2Cc3ccccc3N1O2 (relative stereo)"
  Selectivity Index: ">3"
- Molecule: "Clc1cccc([C@@H]2C[C@@H]3Cc4ccccc4N2O3)c1 (relative stereo)"
  Selectivity Index: ">6"
- Molecule: "Cc1ccc2c(c1)C[C@@H](O)C[C@@H](c1ccccc1Cl)N2 (relative stereo)"
  Selectivity Index: 3.67

Now, please, on to the next molecule.
Query: Could you tell me which Selectivity Index is on file for Clc1ccc2c(c1)C[C@H]1C[C@@H](c3ccc(Br)cc3)N2O1 (relative stereo) ?
Response: >10

###

Overview of recorded Selectivity Index for various compounds
Experiment summary: Selectivity index, CC50 for human THP1 cells to IC50 for Leishmania chagasi MHOM/BR/74/PP75 amastigotes
Assay type: functional, THP-1

The examples below pair each entry with its known result.
- Compound: "Clc1ccc2c(c1)C[C@H]1C[C@@H](c3ccccc3)N2O1 (relative stereo)"
  Reported property: "Selectivity Index"
  Result: ">3"
- Compound: "O[C@@H]1Cc2cc(Cl)ccc2N[C@H](c2ccccc2F)C1 (relative stereo)"
  Reported property: "Selectivity Index"
  Result: ">1"
- Compound: "FC(F)(F)Oc1ccc2c(c1)C[C@H]1C[C@@H](c3ccccc3)N2O1 (relative stereo)"
  Reported property: "Selectivity Index"
  Result: ">3"
- Compound: "O[C@@H]1Cc2ccccc2N[C@H](c2ccc(F)cc2)C1 (relative stereo)"
  Reported property: "Selectivity Index"
  Result: ">3"
- Compound: "Clc1cccc(Cl)c1[C@@H]1C[C@@H]2Cc3ccccc3N1O2 (relative stereo)"
  Reported property: "Selectivity Index"
  Result: ">3"

Query: Could you tell me which Selectivity Index is on file for Cc1cccc([C@@H]2C[C@H](O)Cc3ccccc3N2)c1 (relative stereo) ?
Response: >1

Query: Check Fc1ccc2c(c1)C[C@H]1C[C@@H](c3ccccc3)N2O1 (relative stereo) too.
Response: >3

Query: Check c1ccc([C@@H]2C[C@@H]3Cc4ccccc4N2O3)cc1 (relative stereo) too.
Response: >3

Query: Check O[C@@H]1Cc2cc(Cl)ccc2N[C@H](c2ccccc2)C1 (relative stereo) too.
Response: >1

Query: Check O[C@@H]1Cc2ccccc2N[C@H](c2ccc(Cl)cc2)C1 (relative stereo) too.
Response: >1

Query: Check Cc1ccc([C@@H]2C[C@@H]3Cc4cc(C)ccc4N2O3)cc1 (relative stereo) too.
Response: >0.74

Query: Check O[C@@H]1Cc2ccccc2N[C@H](c2c(Cl)cccc2Cl)C1 (relative stereo) too.
Response: >3

Query: Check Clc1ccccc1[C@@H]1C[C@@H]2Cc3ccccc3N1O2 (relative stereo) too.
Response: >1

###

Overview of recorded IC90 for various compounds
Test system: Trypanosoma cruzi
Experiment summary: Antitrypanosomal activity against Trypanosoma cruzi 320I01 amastigotes infected in african green monkey Vero cells after 5 days by Giemsa staining
Assay type: functional, organism-based
Assay setup: 320I01, Vero, 120 h

Query: Could you tell me which IC90 is on file for Fc1ccccc1[C@@H]1C[C@@H]2Cc3ccccc3N1O2 (relative stereo) ?
Response: 96.4 µM

Query: Check Cc1ccc([C@@H]2C[C@@H]3Cc4cc(C)ccc4N2O3)cc1 (relative stereo) too.
Response: 90 µM

Query: Check O[C@@H]1Cc2cc(Cl)ccc2N[C@H](c2ccc(Cl)cc2)C1 (relative stereo) too.
Response: > 100 µM

Query: Check Clc1cccc([C@@H]2C[C@@H]3Cc4ccccc4N2O3)c1 (relative stereo) too.
Response: > 100 µM

###

Tested on: Trypanosoma cruzi
Experiment summary: Antitrypanosomal activity against Trypanosoma cruzi 320I01 amastigotes infected in african green monkey Vero cells after 5 days by Giemsa staining
Type: functional, organism-based
Assay setup: 320I01, Vero, 120 h
Overview of recorded IC90 for various molecules

The examples below pair each entry with its known result.
- Molecule: "O[C@@H]1Cc2cc(Br)ccc2N[C@H](c2ccccc2)C1 (relative stereo)"
  IC90: "99.4 µM"
- Molecule: "O[C@@H]1Cc2cc(OC(F)(F)F)ccc2N[C@H](c2ccccc2)C1 (relative stereo)"
  IC90: "> 100 µM"

Now, please, on to the next molecule.
Query: Could you tell me which IC90 is on file for O[C@@H]1Cc2ccccc2N[C@H](c2ccc(Cl)cc2)C1 (relative stereo) ?
Response: > 100 µM

###

Overview of recorded CC90 at 72 h for various compounds
Experiment summary: Cytotoxicity against human THP1 cells after 72 hrs by MTT assay
Format: cell-based
Assay setup: THP-1 cells

- Compound: "O[C@@H]1Cc2cc(Br)ccc2N[C@H](c2ccccc2)C1 (relative stereo)"
  Result: "> 300 µM"
- Compound: "COc1cccc([C@@H]2C[C@@H]3Cc4ccccc4N2O3)c1 (relative stereo)"
  Result: "> 300 µM"
- Compound: "O[C@@H]1Cc2ccccc2N[C@H](c2ccccc2F)C1 (relative stereo)"
  Result: "> 300 µM"
- Compound: "Fc1ccc2c(c1)C[C@H]1C[C@@H](c3ccc(Cl)cc3)N2O1 (relative stereo)"
  Result: "> 300 µM"
- Compound: "O[C@@H]1Cc2ccccc2N[C@H](c2ccc(Cl)cc2)C1 (relative stereo)"
  Result: "> 300 µM"

Query: Could you tell me which CC90 at 72 h is on file for Fc1ccc([C@@H]2C[C@@H]3Cc4ccccc4N2O3)cc1 (relative stereo) ?
Response: > 300 µM
